- tested-target: APJ receptor (Homo sapiens (Human), UniProt P35414)
- Sequence (P35414 whole entry): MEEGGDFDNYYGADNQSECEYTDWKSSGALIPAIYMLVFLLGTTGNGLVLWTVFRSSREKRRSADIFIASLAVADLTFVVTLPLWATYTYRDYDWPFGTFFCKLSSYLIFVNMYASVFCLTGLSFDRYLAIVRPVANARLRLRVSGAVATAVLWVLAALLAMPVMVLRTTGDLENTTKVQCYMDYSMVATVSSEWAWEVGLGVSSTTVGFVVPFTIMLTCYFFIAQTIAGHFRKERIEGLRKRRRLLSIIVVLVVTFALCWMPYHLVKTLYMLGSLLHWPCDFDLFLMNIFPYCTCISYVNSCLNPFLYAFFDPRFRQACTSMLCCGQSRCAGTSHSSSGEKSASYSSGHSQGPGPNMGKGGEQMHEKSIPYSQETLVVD
- assay-details: [35S]GTPγS binding assay on membranes from CHO cells stably expressing human APJ receptor
- conditions: membranes of CHO cells stably expressing human APJ receptor, means of several independent experiments, read-out: Activity hAPJ SPA EC50 IP
So basically: is EC50 under 0.6 nM? Then fulfilled. Not under? Then not fulfilled.

# compound, category
rows = [
    ("COc1cccc(OC)c1-n1c(NS(=O)(=O)C[C@](C)(F)c2ncc(C#N)cn2)nnc1-c1ccc(C)o1 (single isomer, unassigned)", "not fulfilled"),
    ("COc1cccc(OC)c1-n1c(NS(=O)(=O)[C@@H]2C[C@H](O)CN(c3cnc(Cl)c(C#N)c3)C2)nnc1-c1ccc(C)o1 (mixture of isomers)", "fulfilled"),
    ("COc1cccc(OC)c1-n1c(NS(=O)(=O)C[C@@](C)(F)c2ncc(F)cn2)nnc1-c1ccc(C)o1 (single isomer, unassigned)", "fulfilled"),
    ("COc1cnc([C@H](O)[C@@H](C)S(=O)(=O)Nc2nnc(-c3ccc(C)o3)n2-c2c(OC)cccc2OC)cn1 (single isomer, unassigned)", "not fulfilled"),
    ("COc1cccc(OC)c1-n1c(NS(=O)(=O)[C@H](C)[C@H](O)c2ccc(C#N)c(C)n2)nnc1-c1ccc(C)o1 (single isomer, unassigned)", "fulfilled"),
]

====

- tested-target: APJ receptor (Homo sapiens (Human), UniProt P35414)
- assay-details: [35S]GTPγS binding assay on membranes from CHO cells stably expressing human APJ receptor
- conditions: membranes of CHO cells stably expressing human APJ receptor, means of several independent experiments, read-out: Activity hAPJ SPA EC50 IP
pEC50: −log10 of the molar value.
Parameter threshold = 8. Response is YES when pEC50 meets or exceeds it, else NO.

# compound, category
records = [
    ("COc1cccc(OC)c1-n1c(NS(=O)(=O)CCc2ccc(F)cc2C#N)nnc1-c1ccco1", "YES"),
    ("COc1cccc(OC)c1-n1c(NS(=O)(=O)[C@H](C)[C@@H](O)c2cc3n(n2)CCCO3)nnc1-c1ccc(C)o1 (racemic)", "YES"),
    ("COc1cccc(OC)c1-n1c(NS(=O)(=O)[C@@H](C)[C@@H](O)c2ccc(F)cn2)nnc1-c1ccc(C)o1 (single isomer, unassigned) [Example 59.0]", "YES"),
    ("COc1cccc(OC)c1-n1c(NS(=O)(=O)[C@@H](C)[C@H](O)c2ncc(F)cn2)nnc1-c1ccc(C)o1", "YES"),
    ("COc1cccc(OC)c1-n1c(NS(=O)(=O)[C@H]2C[C@@H](O)CN(c3cncc(C#N)c3)C2)nnc1-c1ccc(C)o1 [Example 334.0]", "YES"),
    ("COc1cccc(OC)c1-n1c(NS(=O)(=O)[C@H](C)Cc2ccncn2)nnc1-c1ccco1 (single isomer, unassigned) [Example 44.0]", "NO"),
]

====

Measured EC50 by item
- tested-target: APJ receptor (Homo sapiens (Human))
- assay-details: [35S]GTPγS binding assay on membranes from CHO cells stably expressing human APJ receptor
- conditions: membranes of CHO cells stably expressing human APJ receptor, means of several independent experiments, read-out: Activity hAPJ SPA EC50 IP

# compound, tested-target, EC50
records = [
    ("COc1cccc(OC)c1-n1c(NS(=O)(=O)[C@H]2C[C@@H](O)CN(c3ncc(F)cn3)C2)nnc1-c1ccco1 (single isomer, unassigned)", "APJ receptor (Homo sapiens (Human))", "0.94 nM"),
    ("COc1cccc(OC)c1-n1c(NS(=O)(=O)[C@H]2CNC[C@H](c3ccc(F)cc3)C2)nnc1-c1ccco1 (single isomer, unassigned)", "APJ receptor (Homo sapiens (Human))", "75 nM"),
    ("COc1cccc(OC)c1-n1c(NS(=O)(=O)[C@@H](C)[C@H](O)c2ccc(C#N)cn2)nnc1-c1ccc(C)o1 (single isomer, unassigned)", "APJ receptor (Homo sapiens (Human))", "11 nM"),
    ("COC[C@@H]1CCCC(=O)N1C[C@H](C)S(=O)(=O)Nc1nnc(-c2ccc(C)o2)n1-c1c(OC)cccc1OC (racemic)", "APJ receptor (Homo sapiens (Human))", "0.24 nM"),
    ("COc1cccc(OC)c1-n1c(NS(=O)(=O)C2C[C@@H]2c2ccc(Cl)cc2)nnc1-c1ccco1 (single isomer, unassigned)", "APJ receptor (Homo sapiens (Human))", "15 nM"),
    ("COc1cccc(OC)c1-n1c(NS(=O)(=O)[C@@H](C)[C@H](OC)c2cn3ccccc3n2)nnc1-c1ccc(C)o1 (single isomer, unassigned)", "APJ receptor (Homo sapiens (Human))", "0.086 nM"),
]
